Reported percentage damage to the plant, AMARE by item:
# Tested on: Amaranthus retoflexus (AMARE)
# assay-overview: Pre-emergence Test (glasshouse, percentage damage to the plant)
# Type: in vivo
# test-context: 1000 g/ha unless otherwise stated, five-point scale

- compound: "CCn1c(C)c(-c2ccc(F)cc2F)c(=O)c(C(=O)O)c1-c1ccc(Cl)cc1 [Compound 192]"
  tested-on: "Amaranthus retoflexus (AMARE)"
  percentage damage to the plant, AMARE: "1 (1=0-20%)"
- compound: "CCn1c(C)c(-c2cc(OC)ccc2F)c(=O)c(C(=O)O)c1-c1ccc(Cl)cc1 [Compound 189]"
  tested-on: "Amaranthus retoflexus (AMARE)"
  percentage damage to the plant, AMARE: "1 (1=0-20%)"
- compound: "CCn1c(C)c(-c2ccc(OC)c(C)c2)c(=O)c(C(=O)O)c1-c1ccc(Cl)c(Cl)c1 [Compound 100]"
  tested-on: "Amaranthus retoflexus (AMARE)"
  percentage damage to the plant, AMARE: "1 (1=0-20%)"
- compound: "CCn1c(C)c(-c2cc(F)cc(Cl)c2)c(=O)c(C(=O)O)c1-c1ccc(Cl)c(Cl)c1 [Compound 62]"
  tested-on: "Amaranthus retoflexus (AMARE)"
  percentage damage to the plant, AMARE: "1 (1=0-20%)"
- compound: "CCn1c(C)c(-c2ccc(Cl)cc2)c(=O)c(C(=O)O)c1-c1ccc(F)cc1F [Compound 130]"
  tested-on: "Amaranthus retoflexus (AMARE)"
  percentage damage to the plant, AMARE: "3 (3=41-60%)"
- compound: "CCn1c(C)c(-c2ccc(OC(F)(F)F)cc2)c(=O)c(C(=O)O)c1-c1ccc(F)cc1F [Compound 136]"
  tested-on: "Amaranthus retoflexus (AMARE)"
  percentage damage to the plant, AMARE: "2 (2=21-40%)"
- compound: "CCn1c(C)c(-c2ccc(F)cc2OC)c(=O)c(C(=O)O)c1-c1ccc(Cl)cc1 [Compound 186]"
  tested-on: "Amaranthus retoflexus (AMARE)"
  percentage damage to the plant, AMARE: "1 (1=0-20%)"
- compound: "CCn1c(C)c(-c2cscc2C)c(=O)c(C(=O)O)c1-c1ccc(Cl)c(Cl)c1 [Compound 20]"
  tested-on: "Amaranthus retoflexus (AMARE)"
  percentage damage to the plant, AMARE: "1 (1=0-20%)"
- compound: "CCn1c(C)c(-c2ccc(Cl)cc2)c(=O)c(C(=O)NN(C)C)c1-c1ccc(Cl)c(Cl)c1 [Compound 2]"
  tested-on: "Amaranthus retoflexus (AMARE)"
  percentage damage to the plant, AMARE: "3 (3=41-60%)"
- compound: "CCn1c(C)c(-c2cc(Cl)nc(OC(C)C)c2)c(=O)c(C(=O)O)c1-c1ccc(Cl)c(Cl)c1 [Compound 69]"
  tested-on: "Amaranthus retoflexus (AMARE)"
  percentage damage to the plant, AMARE: "1 (1=0-20%)"
- compound: "CCn1c(C)c(-c2ccc(F)cc2C)c(=O)c(C(=O)O)c1-c1ccc(Cl)c(Cl)c1 [Compound 155]"
  tested-on: "Amaranthus retoflexus (AMARE)"
  percentage damage to the plant, AMARE: "1 (1=0-20%)"
- compound: "CCn1c(C)c(-c2ccc(F)c(OCC(F)(F)F)c2)c(=O)c(C(=O)O)c1-c1ccc(Cl)c(Cl)c1 [Compound 105]"
  tested-on: "Amaranthus retoflexus (AMARE)"
  percentage damage to the plant, AMARE: "3 (3=41-60%)"
- compound: "CCn1c(C)c(-c2ccc(F)cc2F)c(=O)c(C(=O)O)c1-c1ccc(Cl)c(Cl)c1 [Compound 3]"
  tested-on: "Amaranthus retoflexus (AMARE)"
  percentage damage to the plant, AMARE: "5 (5=81-100%)"
- compound: "CCn1c(C)c(-c2ccnnc2)c(=O)c(C(=O)O)c1-c1ccc(Cl)c(Cl)c1 [Compound 35, 2,2,2-trifluoroacetate]"
  tested-on: "Amaranthus retoflexus (AMARE)"
  percentage damage to the plant, AMARE: "1 (1=0-20%)"
- compound: "CCn1c(C)c(-c2ccc(S(=O)(=O)CC)cc2)c(=O)c(C(=O)O)c1-c1ccc(Cl)c(Cl)c1 [Compound 66]"
  tested-on: "Amaranthus retoflexus (AMARE)"
  percentage damage to the plant, AMARE: "1 (1=0-20%)"
- compound: "CCn1c(C)c(-c2cnccn2)c(=O)c(C(=O)O)c1-c1ccc(Cl)cn1 [Compound 168]"
  tested-on: "Amaranthus retoflexus (AMARE)"
  percentage damage to the plant, AMARE: 0
- compound: "CCn1c(C)c(-c2cc(Cl)c(OC)c(OC)c2)c(=O)c(C(=O)O)c1-c1ccc(Cl)c(Cl)c1 [Compound 87]"
  tested-on: "Amaranthus retoflexus (AMARE)"
  percentage damage to the plant, AMARE: "1 (1=0-20%)"
- compound: "CCn1c(C)c(-c2cc(Cl)cc(Cl)c2)c(=O)c(C(=O)O)c1-c1ccc(Cl)cc1 [Compound 188]"
  tested-on: "Amaranthus retoflexus (AMARE)"
  percentage damage to the plant, AMARE: 0
- compound: "CCn1c(C)c(-c2ccc(F)c(C#N)c2)c(=O)c(C(=O)O)c1-c1ccc(Cl)c(Cl)c1 [Compound 91]"
  tested-on: "Amaranthus retoflexus (AMARE)"
  percentage damage to the plant, AMARE: "2 (2=21-40%)"
- compound: "CCn1c(C)c(-c2cc(Cl)cc(C(F)(F)F)c2)c(=O)c(C(=O)O)c1-c1ccc(Cl)c(Cl)c1 [Compound 82]"
  tested-on: "Amaranthus retoflexus (AMARE)"
  percentage damage to the plant, AMARE: "2 (2=21-40%)"
- compound: "CCn1c(C)c(-c2ccc(Cl)s2)c(=O)c(C(=O)O)c1-c1ccc(Cl)c(Cl)c1 [Compound 63]"
  tested-on: "Amaranthus retoflexus (AMARE)"
  percentage damage to the plant, AMARE: "4 (4=61-80%)"
- compound: "CCn1c(C)c(-c2cccc(OC(F)(F)F)c2)c(=O)c(C(=O)O)c1-c1ccc(Cl)c(Cl)c1 [Compound 16]"
  tested-on: "Amaranthus retoflexus (AMARE)"
  percentage damage to the plant, AMARE: "1 (1=0-20%)"
- compound: "CCn1c(C)c(-c2cnc3c(c2)OC(F)(F)O3)c(=O)c(C(=O)O)c1-c1ccc(Cl)c(Cl)c1 [Compound 60]"
  tested-on: "Amaranthus retoflexus (AMARE)"
  percentage damage to the plant, AMARE: "2 (2=21-40%)"
- compound: "CCn1c(C)c(-c2cc(C)cs2)c(=O)c(C(=O)O)c1-c1ccc(Cl)cc1 [Compound 167]"
  tested-on: "Amaranthus retoflexus (AMARE)"
  percentage damage to the plant, AMARE: "1 (1=0-20%)"
- compound: "CCn1c(C)c(-c2cc(C)cc(C#N)c2)c(=O)c(C(=O)O)c1-c1ccc(Cl)c(Cl)c1 [Compound 80]"
  tested-on: "Amaranthus retoflexus (AMARE)"
  percentage damage to the plant, AMARE: "1 (1=0-20%)"
- compound: "CCn1c(C)c(-c2ccnnc2)c(=O)c(C(=O)O)c1-c1ccc(Cl)cc1 [Compound 180]"
  tested-on: "Amaranthus retoflexus (AMARE)"
  percentage damage to the plant, AMARE: 0
- compound: "CCn1c(C)c(-c2cccc(C#N)c2)c(=O)c(C(=O)O)c1-c1ccc(Cl)c(Cl)n1 [Compound 147]"
  tested-on: "Amaranthus retoflexus (AMARE)"
  percentage damage to the plant, AMARE: 0
- compound: "CCn1c(C)c(-c2cccc(C(F)(F)F)c2F)c(=O)c(C(=O)O)c1-c1ccc(Cl)cc1 [Compound 181]"
  tested-on: "Amaranthus retoflexus (AMARE)"
  percentage damage to the plant, AMARE: "1 (1=0-20%)"
- compound: "CCOc1cc(C)cc(-c2c(C)n(CC)c(-c3ccc(Cl)c(Cl)c3)c(C(=O)O)c2=O)c1 [Compound 103]"
  tested-on: "Amaranthus retoflexus (AMARE)"
  percentage damage to the plant, AMARE: "1 (1=0-20%)"
- compound: "CCn1c(C)c(-c2ccc(Cl)cc2)c(=O)c(C(=O)O)c1-c1ccc(Br)c(F)c1 [Compound 129]"
  tested-on: "Amaranthus retoflexus (AMARE)"
  percentage damage to the plant, AMARE: "5 (5=81-100%)"
- compound: "CCn1c(C)c(-c2cccc(Cl)c2)c(=O)c(C(=O)O)c1-c1ccnc(Cl)c1 [Compound 144]"
  tested-on: "Amaranthus retoflexus (AMARE)"
  percentage damage to the plant, AMARE: "1 (1=0-20%)"

These entries and their values trace back to patent US12660819B2.
